# Test system: Clostridium difficile
# protocol.notes: growth AUC relative to DMSO control (median of replicates) (fraction); higher = more growth (less inhibition), active = hit call of the paper
# protocol.conditions: 20 µM; 24 h
Each entry below carries its reported growth AUC.
Lab note: jot down the number only; don't add units.

**Q:** So what does the record say about growth AUC for "CCCN(CCC)c1c([N+](=O)[O-])cc(C(F)(F)F)cc1[N+](=O)[O-]" ?
**A:** 1

**Q:** Would you kindly share the measured growth AUC for "CC(C)OC(=O)C(O)(c1ccc(Br)cc1)c1ccc(Br)cc1" ?
**A:** 0.982

**Q:** Bench note: what growth AUC did "C/C(=N/Nc1nc(C)cc(C)n1)c1ccccc1C" show?
**A:** 0.99

**Q:** I am curious: what growth AUC value has been reported for "O=C(NC(=O)c1c(F)cccc1F)Nc1ccc(Cl)cc1" ?
**A:** 1.01

**Q:** Record request: growth AUC value, item "c1ccc2c(c1)-c1cccc3cccc-2c13"
**A:** 1.02

**Q:** Fill in: growth AUC of "CCOC(=O)N(C)C(=O)CSP(=S)(OCC)OCC" is ___
**A:** 1.01

**Q:** I would be grateful if you could share the reported growth AUC for CCOP(=O)(SC(C)CC)N1CCSC1=O (stereo not drawn) .
**A:** 1.02

**Q:** Report growth AUC for "O=C(O)C(Cl)Cl" please.
**A:** 1

**Q:** growth AUC lookup needed for CCOP(=S)(OCC)SCS(=O)C(C)(C)C (stereo not drawn) , thanks.
**A:** 1

----------
Listed next: entries and their corresponding growth AUC.
# Tested on: Bacteroides uniformis
# protocol.notes: growth AUC relative to DMSO control (median of replicates) (fraction); higher = more growth (less inhibition), active = hit call of the paper
# protocol.conditions: 20 µM; 24 h
Could you keep your reply to the number by itself?

COc1nc(C)nc(NC(=O)NS(=O)(=O)c2ccccc2Cl)n1 | 1

**Q:** Field request: growth AUC | item: "CS(=O)(=O)c1cc(C(F)(F)F)ccc1C(=O)c1cnoc1C1CC1"
**A:** 0.994

**Q:** Recorded growth AUC of "CC(C)N1C(=O)c2ccccc2NS1(=O)=O" , please.
**A:** 0.977

**Q:** Which value of growth AUC has been reported for "C=CCN(CC=C)C(=O)C(Cl)Cl" in the records?
**A:** 0.985

**Q:** Dear colleague, I am looking for the recorded growth AUC of the following molecule: "Oc1cc(Cl)cc(Cl)c1"
**A:** 1.01

**Q:** Bench note: what growth AUC did "NC(=O)/N=C1/SCCN1Cc1ccc(Cl)nc1" show?
**A:** 1.01

**Q:** Param item = "O=[N+]([O-])c1cc(Cl)ccc1Cl" ; retrieve measured growth AUC.
**A:** 1.02

**Q:** Tell me the measured growth AUC of "CCC(C)(C)c1ccc(O)cc1" , please.
**A:** 1

**Q:** Fill blank: measured growth AUC of the molecule COP(N)(=S)Oc1ccccc1C(=O)OC(C)C (centres undefined) is ____.
**A:** 0.999

**Q:** So what does the record say about growth AUC for "CC(C)(O)C(Cl)(Cl)Cl.CC(C)(O)C(Cl)(Cl)Cl.O" ?
**A:** 1.02

**Q:** Find the recorded growth AUC belonging to "Nc1cccc(Cl)c1Cl" and report it.
**A:** 1.02

**Q:** Any idea what growth AUC was measured for "CNC(=O)/C(=N\OC)c1ccccc1Oc1ccccc1" ?
**A:** 0.998

**Q:** I am curious: what growth AUC value has been reported for "CC1=C(C(=O)Nc2ccccc2)S(=O)(=O)CCO1" ?
**A:** 0.981

**Q:** Which growth AUC value is on record for "CCCCCCCCCCCCC1=C(OC(C)=O)C(=O)c2ccccc2C1=O" ?
**A:** 0.987

**Q:** Entry under review: "O=C(O)CCCOc1ccc(Cl)cc1Cl" . Reported growth AUC?
**A:** 1.07

**Q:** Reported growth AUC for "CCCN(CC1CC1)c1c([N+](=O)[O-])cc(C(F)(F)F)cc1[N+](=O)[O-]" : what is it?
**A:** 1.03

**Q:** For the molecule shown here, "CCN(CC)C(=O)/C(Cl)=C(/C)OP(=O)(OC)OC" , give the reported growth AUC.
**A:** 0.979

**Q:** Look at this molecule and give its reported growth AUC. "Nc1cc(Cl)cc(Cl)c1"
**A:** 1.04

**Q:** Find the recorded growth AUC belonging to "COC(=O)N(OC)c1ccccc1COc1ccn(-c2ccc(Cl)cc2)n1" and report it.
**A:** 0.861

**Q:** If you can, please state the reported growth AUC value of CC[C@H]1CCCC(O[C@H]2CC[C@H](N(C)C)[C@@H](C)O2)[C@@H](C)C(=O)C2=C[C@@H]3[C@@H](C=C(C)[C@@H]4C[C@@H](O[C@@H]5O[C@@H](C)[C@H](OC)[C@@H](OC)[C@H]5OC)C[C@@H]34)[C@@H]2CC(=O)O1.CC[C@H]1CCCC(O[C@H]2CC[C@H](N(C)C)[C@@H](C)O2)[C@@H](C)C(=O)C2=C[C@@H]3[C@@H](C=C[C@@H]4C[C@@H](O[C@@H]5O[C@@H](C)[C@H](OC)[C@@H](OC)[C@H]5OC)C[C@@H]34)[C@@H]2CC(=O)O1 (some centres undefined) .
**A:** 0.987

----------
The following molecules are listed with their measured growth AUC values.
# Test system: Bacteroides caccae
# protocol.notes: growth AUC relative to DMSO control (median of replicates) (fraction); higher = more growth (less inhibition), active = hit call of the paper
# protocol.conditions: 20 µM; 24 h
No unit in the answer, please; the number alone is enough.

Guide cases for growth AUC, answers given:
CC1(C)[C@H](C(=O)O[C@H](C#N)c2cccc(Oc3ccccc3)c2)[C@@H]1C=C(Br)Br | 0.983
CN(C)C(=O)Nc1ccc(Cl)cc1 | 1.02
Nc1nc(N)nc(N)n1 | 1.02
CNC(=O)ON=C(CS(C)=O)C(C)(C)C (centres undefined) | 1.02
Clc1cc(Cl)c(Cl)c(Cl)c1 | 0.971
C#CCN1C(=O)COc2cc(F)c(N3C(=O)C4=C(CCCC4)C3=O)cc21 | 1.01
CCC(C)(CC)c1cc(NC(=O)c2c(OC)cccc2OC)on1 | 1.01
CC(Oc1cc(Cl)c(Cl)cc1Cl)C(=O)O (centres undefined) | 1

API: the following record is the query input.
**Q:** Observed growth AUC on Bacteroides caccae for "CC(C)OC(=O)Nc1ccccc1" , please.
**A:** 1.02

----------
# Tested on: Akkermansia muciniphila
# protocol.notes: growth AUC relative to DMSO control (median of replicates) (fraction); higher = more growth (less inhibition), active = hit call of the paper
# protocol.conditions: 20 µM; 24 h
// map growth AUC onto a label; ranges interval 1 (below 0.9), interval 2 (0.9 to below 1), interval 3 (1 or more)

**Q:** Which band does COP(=O)(OC)OC1=C(Cl)C2C=CCC12 (stereo not given) fall in?
**A:** interval 3

**Q:** Category of "CCOCN(C(=O)CCl)c1c(C)cccc1CC" :
**A:** interval 2

**Q:** Please report the category associated with N#Cc1nn(-c2c(Cl)cc(C(F)(F)F)cc2Cl)c(N)c1S(=O)C(F)(F)F (stereo not given) , nothing else.
**A:** interval 3

**Q:** Class for "CCCCc1c(C)nc(N(C)C)[nH]c1=O" ?
**A:** interval 2

**Q:** Class? Entry: "Cc1[nH]c(=O)n(C(C)(C)C)c(=O)c1Cl"
**A:** interval 3

**Q:** Which growth AUC band matches "C=C(C)[C@H]1Cc2c(ccc3c2O[C@@H]2COc4cc(OC)c(OC)cc4[C@@H]2C3=O)O1" ?
**A:** interval 3

**Q:** Quick check: band for "COC(=O)Nc1cccc(OC(=O)Nc2cccc(C)c2)c1"
**A:** interval 1

**Q:** Class for CC(C)(C)C(O)C(Oc1ccc(Cl)cc1)n1cncn1 (stereo not given) ?
**A:** interval 2

----------
# System: Lactobacillus gasseri
# protocol.notes: growth AUC relative to DMSO control (median of replicates) (fraction); higher = more growth (less inhibition), active = hit call of the paper
# protocol.conditions: 20 µM; 24 h
Recorded measurements of growth AUC, one per entry

OC(c1ccc(Cl)cc1)(c1cncnc1)c1ccccc1Cl (stereo not given) | 0.922 (inactive)
COP(=S)(OC)Oc1ccc(SC)c(C)c1 | 1.01 (inactive)
C#CCOS(=O)OC1CCCCC1Oc1ccc(C(C)(C)C)cc1 (mixture of isomers) | 0.928 (inactive)

**Q:** What does the data say about its growth AUC? Entry: "COc1cc(OC)nc(NC(=O)NS(=O)(=O)c2cc(NC=O)ccc2C(=O)N(C)C)n1"
**A:** 0.902 (inactive)

**Q:** I would be grateful if you could share the reported growth AUC for C#CCOc1ccc(CCNC(=O)C(OCC#C)c2ccc(Cl)cc2)cc1OC (stereo not given) .
**A:** 0.926 (inactive)

Origin of the recorded values: the supplement of paper PMC12669032
